Reported inhibition is given for each of the following molecules.
# STUDY_TARGET: Proteinase-activated receptor 1 (Homo sapiens) (UniProt P25116)
# Sequence (P25116 whole entry): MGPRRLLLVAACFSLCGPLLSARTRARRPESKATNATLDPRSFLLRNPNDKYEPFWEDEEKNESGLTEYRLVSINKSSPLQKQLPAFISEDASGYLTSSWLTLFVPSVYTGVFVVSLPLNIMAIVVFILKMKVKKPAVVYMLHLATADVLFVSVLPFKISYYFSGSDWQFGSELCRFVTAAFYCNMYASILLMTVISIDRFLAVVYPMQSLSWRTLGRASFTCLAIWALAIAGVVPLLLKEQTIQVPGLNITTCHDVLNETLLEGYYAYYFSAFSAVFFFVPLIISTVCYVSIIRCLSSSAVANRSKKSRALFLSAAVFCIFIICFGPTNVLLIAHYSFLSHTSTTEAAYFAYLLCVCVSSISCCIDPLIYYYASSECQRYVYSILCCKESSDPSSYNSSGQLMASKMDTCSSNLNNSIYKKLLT
# METHOD_SUMMARY: Inhibition of SFLLRN-NH2-stimulated PAR1-mediated platelet activation in […] assessed as surface expression of P-selectin at 10 uM after 20 mins by flow cytometry
# Assay type: cell-based
# number only, unit % dropped from output

Check out these entries, answers already filled in.
{"columns": ["COMPOUND_STRING", "STUDY_TARGET", "OBSERVED_VALUE"],
 "data": [
  ["CCCC(=O)Nc1cccc(NC(=O)c2cccc(C#N)c2)c1", "Proteinase-activated receptor 1 (Homo sapiens) (UniProt P25116)", 70],
  ["O=C(Nc1cccc(N2CCCS2(=O)=O)c1)c1ccccc1Br", "Proteinase-activated receptor 1 (Homo sapiens) (UniProt P25116)", 8],
  ["CCCC(=O)Nc1cccc(NC(=O)c2cccc(-c3ccccc3)c2)c1", "Proteinase-activated receptor 1 (Homo sapiens) (UniProt P25116)", 98]
]}

(Q) Note down inhibition recorded for O=C(Nc1ccnc(NC(=O)c2ccccc2Br)c1)c1ccccc1
(A) 11

(Q) // Input: CCC(C)(C)C(=O)Nc1cccc(NC(=O)c2ccccc2Br)c1 . Output its inhibition only.
(A) 21

(Q) Supply inhibition value. Item: CCCC(=O)N(C)c1cccc(NC(=O)c2ccccc2Br)c1
(A) 8

(Q) Please supply the value of reported inhibition for the item CCS(=O)(=O)Nc1cccc(NC(=O)c2ccccc2Br)c1
(A) 27

(Q) Query inhibition for CCOC(=O)Nc1cccc(NC(=O)c2ccccc2Br)c1
(A) 98

(Q) Let me know recorded inhibition for CCCC(=O)Nc1cccc(NCc2ccccc2Br)c1 , thanks.
(A) 60

* * *

# STUDY_TARGET: Proteinase-activated receptor 1 (Homo sapiens) (UniProt P25116)
# METHOD_SUMMARY: Inhibition of SFLLRN-NH2-stimulated PAR1-mediated platelet activation in […] assessed as surface expression of P-selectin at 10 uM after 20 mins by flow cytometry
# Assay type: cell-based
Let's look at some compounds and their measured inhibition.

{"columns": ["COMPOUND_STRING", "STUDY_TARGET", "OBSERVED_VALUE"],
 "data": [
  ["CCCC(=O)Nc1cccc(NC(=O)c2cc(C)ccc2Br)c1", "Proteinase-activated receptor 1 (Homo sapiens) (UniProt P25116)", "> 99%"],
  ["CCCC(=O)Nc1ccnc(NC(=O)c2ccccc2Br)c1", "Proteinase-activated receptor 1 (Homo sapiens) (UniProt P25116)", "< 1%"],
  ["O=C(Nc1cc(NC(=O)C2CCCC2)ccn1)c1ccccc1Br", "Proteinase-activated receptor 1 (Homo sapiens) (UniProt P25116)", "< 1%"]
]}

Okay, now this compound:
(Q) Fill in inhibition for CCCNC(=O)c1coc(NC(=O)c2ccccc2Br)n1 tested with Proteinase-activated receptor 1 (Homo sapiens) (UniProt P25116).
(A) < 1%

Recorded values, source ChEMBL document CHEMBL2046322.
